Tested on: P388 mouse leukemia cells
Conditions: 92 h
Where a SMILES comes first, the peptide text is derived from it. [ ]: non-standard residue; d: D form. The star is where a group is joined. NHCH2CH2OH = OCCN*; For = O=C*
Measure: cell viability/% (%)

1) CC(C)C[C@@H](NC(=O)[C@H](C)NC(=O)[C@H](NC(=O)[C@H](C)NC(=O)CNC(=O)[C@@H](NC=O)C(C)C)C(C)C)C(=O)N[C@H](C(=O)N[C@H](CC(C)C)C(=O)N[C@@H](Cc1c[nH]c2ccccc12)C(=O)N[C@H](CC(C)C)C(=O)N[C@@H](Cc1c[nH]c2ccccc12)C(=O)N[C@@H](C(=O)N[C@@H](Cc1c[nH]c2ccccc12)C(=O)N[C@@H](C(=O)N[C@@H](Cc1c[nH]c2ccccc12)C(=O)NCCO)[C@H](C)O)C(C)C)C(C)C [compound 5370] (For-VGA[dV]A[dL]V[dL]W[dL]W[dV]W[dT]W-NHCH2CH2OH)
100.0
2) CC(C)C[C@@H](NC(=O)[C@H](Cc1c[nH]c2ccccc12)NC(=O)[C@H](NC(=O)[C@@H](NC(=O)[C@H](NC(=O)[C@H](C)NC(=O)[C@H](NC(=O)[C@H](C)NC(=O)CNC(=O)[C@@H](NC=O)C(C)C)C(C)C)C(C)C)C(C)C)[C@H](C)O)C(=O)N[C@@H](Cc1c[nH]c2ccccc12)C(=O)N[C@@H](C(=O)N[C@@H](Cc1c[nH]c2ccccc12)C(=O)N[C@@H](C(=O)N[C@@H](Cc1c[nH]c2ccccc12)C(=O)NCCO)C(C)C)C(C)C [compound 8596] (For-VGA[dV]A[dV]V[dT]W[dL]W[dV]W[dV]W-NHCH2CH2OH)
56.2
3) CC(C)C[C@@H](NC(=O)[C@H](C)NC(=O)CNC(=O)[C@@H](NC=O)C(C)C)C(=O)N[C@@H](C)C(=O)N[C@H](CC(C)C)C(=O)N[C@H](C(=O)N[C@@H](C(=O)N[C@@H](Cc1c[nH]c2ccccc12)C(=O)N[C@@H](C(=O)N[C@@H](Cc1c[nH]c2ccccc12)C(=O)N[C@H](CC(C)C)C(=O)N[C@@H](Cc1c[nH]c2ccccc12)C(=O)N[C@H](CC(C)C)C(=O)N[C@@H](Cc1c[nH]c2ccccc12)C(=O)NCCO)C(C)C)[C@H](C)O)C(C)C [compound 2158] (For-VGA[dL]A[dL]V[dT]W[dV]W[dL]W[dL]W-NHCH2CH2OH)
100.0
4) CC(C)C[C@@H](NC(=O)[C@H](C)NC(=O)CNC(=O)[C@@H](NC=O)C(C)C)C(=O)N[C@@H](C)C(=O)N[C@H](CC(C)C)C(=O)N[C@H](C(=O)N[C@@H](C(=O)N[C@@H](Cc1c[nH]c2ccccc12)C(=O)N[C@@H](C(=O)N[C@@H](Cc1c[nH]c2ccccc12)C(=O)N[C@@H](C(=O)N[C@@H](Cc1c[nH]c2ccccc12)C(=O)N[C@@H](C(=O)N[C@@H](Cc1c[nH]c2ccccc12)C(=O)NCCO)C(C)C)C(C)C)C(C)C)C(C)C)C(C)C [compound 7845] (For-VGA[dL]A[dL]V[dV]W[dV]W[dV]W[dV]W-NHCH2CH2OH)
100.0
5) CC(C)C[C@@H](NC(=O)[C@H](C)NC(=O)CNC(=O)[C@@H](NC=O)C(C)C)C(=O)N[C@@H](C)C(=O)N[C@H](CC(C)C)C(=O)N[C@H](C(=O)N[C@H](CC(C)C)C(=O)N[C@@H](Cc1c[nH]c2ccccc12)C(=O)N[C@@H](C(=O)N[C@@H](Cc1c[nH]c2ccccc12)C(=O)N[C@H](CC(C)C)C(=O)N[C@@H](Cc1c[nH]c2ccccc12)C(=O)N[C@H](CC(C)C)C(=O)N[C@@H](Cc1c[nH]c2ccccc12)C(=O)NCCO)[C@H](C)O)C(C)C [compound 7211] (For-VGA[dL]A[dL]V[dL]W[dT]W[dL]W[dL]W-NHCH2CH2OH)
100.0
6) CC(C)C[C@@H](NC(=O)[C@H](C)NC(=O)[C@H](NC(=O)[C@H](C)NC(=O)CNC(=O)[C@@H](NC=O)C(C)C)C(C)C)C(=O)N[C@H](C(=O)N[C@@H](C(=O)N[C@@H](Cc1c[nH]c2ccccc12)C(=O)N[C@H](CC(C)C)C(=O)N[C@@H](Cc1c[nH]c2ccccc12)C(=O)N[C@@H](C(=O)N[C@@H](Cc1c[nH]c2ccccc12)C(=O)N[C@@H](C(=O)N[C@@H](Cc1c[nH]c2ccccc12)C(=O)NCCO)C(C)C)C(C)C)[C@H](C)O)C(C)C [compound 4126] (For-VGA[dV]A[dL]V[dT]W[dL]W[dV]W[dV]W-NHCH2CH2OH)
100.0
7) CNC(=O)C[C@@H](NC(=O)[C@@H](NC(=O)[C@H](NC(=O)[C@H](C)NC(=O)[C@H](NC(=O)[C@H](C)NC(=O)CNC(=O)[C@@H](NC=O)C(C)C)C(C)C)C(C)C)C(C)C)C(=O)N[C@@H](Cc1c[nH]c2ccccc12)C(=O)N[C@H](CC(C)C)C(=O)N[C@@H](Cc1c[nH]c2ccccc12)C(=O)N[C@H](CC(C)C)C(=O)N[C@@H](Cc1c[nH]c2ccccc12)C(=O)N[C@@H](C(=O)N[C@@H](Cc1c[nH]c2ccccc12)C(=O)NCCO)C(C)C [compound 11796] (For-VGA[dV]A[dV]V[dD](NHMe)W[dL]W[dL]W[dV]W-NHCH2CH2OH)
100.0
8) CC(C)C[C@@H](NC(=O)[C@H](C)NC(=O)CNC(=O)[C@@H](NC=O)C(C)C)C(=O)N[C@@H](C)C(=O)N[C@H](CC(C)C)C(=O)N[C@H](C(=O)N[C@H](CC(C)C)C(=O)N[C@@H](Cc1c[nH]c2ccccc12)C(=O)N[C@@H](C(=O)N[C@@H](Cc1c[nH]c2ccccc12)C(=O)N[C@@H](C(=O)N[C@@H](Cc1c[nH]c2ccccc12)C(=O)N[C@@H](C(=O)N[C@@H](Cc1c[nH]c2ccccc12)C(=O)NCCO)C(C)C)C(C)C)[C@H](C)O)C(C)C [compound 4532] (For-VGA[dL]A[dL]V[dL]W[dT]W[dV]W[dV]W-NHCH2CH2OH)
100.0
